assay-target: human α7 nAChR (Homo sapiens, UniProt P36544)
Construct: expressed in transfected cells
Sequence (P36544 23-502): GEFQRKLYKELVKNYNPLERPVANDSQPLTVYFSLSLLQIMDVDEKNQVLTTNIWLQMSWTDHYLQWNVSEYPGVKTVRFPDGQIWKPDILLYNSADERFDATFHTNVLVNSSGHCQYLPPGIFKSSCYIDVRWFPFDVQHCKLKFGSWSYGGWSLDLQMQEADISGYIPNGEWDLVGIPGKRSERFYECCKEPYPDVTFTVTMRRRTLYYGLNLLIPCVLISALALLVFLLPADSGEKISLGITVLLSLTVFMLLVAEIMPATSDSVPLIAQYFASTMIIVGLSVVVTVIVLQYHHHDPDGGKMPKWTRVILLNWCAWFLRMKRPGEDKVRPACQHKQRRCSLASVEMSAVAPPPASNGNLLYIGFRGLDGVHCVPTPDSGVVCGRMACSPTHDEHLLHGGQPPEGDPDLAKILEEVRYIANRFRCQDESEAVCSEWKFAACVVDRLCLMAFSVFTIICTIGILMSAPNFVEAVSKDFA
procedure-details: Evaluation of PAM activity with human α7 nACh receptor stably expressing cells (aequorin luminescence, FDSS7000)
Format: cell-based
measurement-conditions: 10 μM test compound; ACh at EC20; ratio of RLU (Max-Min) to control wells; read-out: α7PAM (%) @10 μM
Range-based classes on measured activity at 10 µM: low class = under 200%, middle class = from 200% up to 500%, high class = 500% and over

Task: Class for CC(C)(F)C(=O)N[C@H]1CC[C@@H](n2cnc(-c3ccc(C(F)(F)F)cc3)c2C#N)CC1 [Example 201] ?
Result: middle class

Task: Class label required: O=C(NC1CCC(F)(F)CC1)N1CCC(n2cnc(-c3ccnc(Cl)c3)c2)CC1 [Example 120]
Result: middle class

Task: Entry N#Cc1c(-c2cccc(F)c2F)ncn1[C@H]1C[C@H]2CC[C@@H](C1)N2C(=O)C1CCC(F)(F)CC1 [Example 445] belongs to which category?
Result: middle class

Task: Please let me know in which category the item Cc1c(-c2ccc(F)cc2)ncn1C1CCN(C(=O)C2CCC(F)(F)CC2)CC1 [Example 275] belongs.
Result: high class

Task: Any idea which band O=C(NC1CC2CCC1C2)N1CCC(n2cnc(-c3cccc(F)c3)c2)CC1 (stereo not shown) [Example 2] is in?
Result: low class

Task: Class? Entry: N#Cc1c(-c2ccccc2F)ncn1C1CCN(C(=O)C2CCC(F)(F)CC2)CC1 [Example 156]
Result: high class

Task: Note: place this compound into its band. Item: CC(C)(F)C(=O)N[C@H]1CC[C@@H](n2cnc(-c3cccc(F)c3F)c2)CC1 [Example 299]
Result: high class

Task: Lab log: O=C(NC1CCCCC1)N1[C@@H]2CC[C@H]1C[C@@H](n1cnc(-c3ccccc3)c1)C2 [Example 383] — assign activity at 10 µM category
Result: high class

Task: Record Cc1ccc(-c2cn(C3CCN(C(=O)NC4CCCC4)CC3)cn2)s1 [Example 122] — which class?
Result: middle class

Task: Would you mind sorting O=C(N[C@H]1CC[C@H](n2cnc(-c3ccccc3)c2)CC1)C1CCC(F)(F)CC1 [Example 205] into the appropriate category?
Result: low class

Task: Classify this compound: O=C(NC1CCCCC1)N1[C@@H]2CC[C@H]1C[C@H](n1cnc(-c3ccc(F)cc3)c1)C2 [Example 405]
Result: middle class

Task: Please let me know in which category the item O=C(C1CCC(F)(F)CC1)N1[C@@H]2CC[C@H]1C[C@@H](n1cnc(-c3cc(F)ccc3F)c1Cl)C2 [Example 437] belongs.
Result: high class

Task: Which class holds COc1ccc(-c2ncn([C@H]3CC[C@@H](NC(=O)C4CCCC4)CC3)c2Cl)cc1Cl [Example 180] ?
Result: middle class

Task: Which class does CC(C)(F)C(=O)N1CCC(n2cnc(-c3ccc(F)cc3)c2Cl)CC1 [Example 263] fall in?
Result: low class

Task: Determine which band this compound sits in: O=C(NC1CCC(F)(F)CC1)N1[C@@H]2CC[C@H]1C[C@@H](n1cnc(-c3cc(F)ccc3F)c1Cl)C2 [Example 396]
Result: high class
